Target: MK2 (Homo sapiens)
Experiment: MK2 degradation in human SW1353 cells (MSD, 24 h)
Format: cell-based
Parameters: endogenous in cells; host or cells: SW-1353 (ATCC HTB-94)
Conditions: read-out: MK2 MSD SW 1353 24 h Dmax %
endpoint.name: Dmax

## Input Name the recorded Dmax for Cn1c(=O)n(C2CCC(=O)NC2=O)c2ccc(N3CCC(CN4CCN(c5cc(C#N)cc(-c6cc(-c7cc8c([nH]7)CCNC8=O)ccn6)c5)CC4)CC3)cc21 (centres unmarked) .
## Output < 50%

## Input Name the recorded Dmax for C[C@@H]1CNc2c(sc3ccc4nc(-c5cc(N6CCC(CN7CCC(c8cccc9c8n(C)c(=O)n9C8CCC(=O)NC8=O)CC7)CC6)ccc5F)ccc4c23)C(=O)N1 (some centres unmarked) .
## Output > 75%

## Input Name the recorded Dmax for COc1ccc2c(c1N1CCC(CN3CCN(c4ccc(-c5ccc6c(ccc7sc8c(c76)NC[C@@H](C)NC8=O)n5)cn4)CC3)CC1)n(C)c(=O)n2C1CCC(=O)NC1=O (some centres unmarked) .
## Output > 75%

## Input Name the recorded Dmax for C[C@@H]1CNc2c(sc3ccc4nc(-c5ccc(N6CCC7(CC6)CN(CCCCCCc6cccc8c6n(C)c(=O)n8C6CCC(=O)NC6=O)C7)cc5)ccc4c23)C(=O)N1 (some centres unmarked) .
## Output > 75%

## Input Name the recorded Dmax for C[C@@H]1CNc2c(sc3ccc4nc(-c5ccc(N6CCC(CCN7CCN(c8cccc9c8n(C)c(=O)n9C8CCC(=O)NC8=O)CC7)CC6)cc5)ccc4c23)C(=O)N1 (some centres unmarked) .
## Output > 75%

* * *

Recorded DC50, one value per entry.
Biological target: MK2 (Homo sapiens, UniProt P49137)
Sequence (P49137 whole entry): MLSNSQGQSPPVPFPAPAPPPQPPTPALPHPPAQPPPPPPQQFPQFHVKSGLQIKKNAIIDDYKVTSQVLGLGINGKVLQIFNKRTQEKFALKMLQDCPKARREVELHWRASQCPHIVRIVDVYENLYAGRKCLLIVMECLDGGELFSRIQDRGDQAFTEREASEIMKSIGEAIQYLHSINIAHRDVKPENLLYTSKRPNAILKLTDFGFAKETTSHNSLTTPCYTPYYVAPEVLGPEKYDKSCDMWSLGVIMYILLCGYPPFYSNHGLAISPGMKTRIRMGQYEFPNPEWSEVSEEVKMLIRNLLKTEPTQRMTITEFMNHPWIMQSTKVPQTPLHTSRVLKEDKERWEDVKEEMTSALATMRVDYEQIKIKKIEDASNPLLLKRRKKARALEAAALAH
Test: MK2 degradation in human SW1353 cells (MSD, 24 h)
Assay type: cell-based
Parameters: endogenous in cells; host or cells: SW-1353 (ATCC HTB-94)
Settings: read-out: MK2 MSD SW1353 degradation 24 h GMean External Abs DC50

- molecule: "C[C@@H]1Cc2oc(-c3ccnc(-c4ccc(N5CCN(CC6CCN(c7cccc8c7n(C)c(=O)n8C7CCC(=O)NC7=O)CC6)CC5)nc4)c3)cc2C(=O)N1 (some centres unmarked)"
  endpoint.name: "DC50"
  reported: "10 to 100 nM"
- molecule: "C[C@@H]1CNc2c(sc3ccc4nc(-c5ccc(N6CCN(CCC7CCN(c8cccc9c8n(C)c(=O)n9C8CCC(=O)NC8=O)CC7)CC6)cc5)ccc4c23)C(=O)N1 (some centres unmarked)"
  endpoint.name: "DC50"
  reported: "1 to 10 nM"

## Input Lab note: need DC50 with MK2 (Homo sapiens, UniProt P49137) for entry C[C@@H]1CNc2c(sc3ccc4nc(N5C[C@H]6CC[C@@H]5CN6CC5CCN(c6cccc7c6n(C)c(=O)n7C6CCC(=O)NC6=O)CC5)ccc4c23)C(=O)N1 (some centres unmarked) , please look it up.
## Output 1 to 10 nM

## Input Lab note: need DC50 with MK2 (Homo sapiens, UniProt P49137) for entry C[C@@H]1CNc2c(sc3ccc4nc(N5CCN(CC6CCN(c7ccc8c(c7)n(C)c(=O)n8C7CCC(=O)NC7=O)CC6)CC5)ccc4c23)C(=O)N1 (some centres unmarked) , please look it up.
## Output 1 to 10 nM

## Input Lab note: need DC50 with MK2 (Homo sapiens, UniProt P49137) for entry C[C@@H]1CNc2c(sc3ccc4nc(-c5ccc(N6CCC(CN7CCC(c8cccc9c8n(C)c(=O)n9C8CCC(=O)NC8=O)CC7)CC6)nc5)ccc4c23)C(=O)N1 (some centres unmarked) , please look it up.
## Output < 1 nM
